biological target: BRD4-1 (Homo sapiens (Human)); assay: BRD4-1 Ligand KI assay (TR-FRET, Cy5 labeled ligand displacement); assay type: binding
Readout Name: pIC50
One number for each entry, as −log10 of the molar value.

Record Cc1noc(C)c1-c1cc(C(O)(c2ccccn2)c2ncccn2)c2nc(C3CC3)[nH]c2c1 (racemic) . Reported pIC50: 8.23

###

molecular target: BRD4-2 (Homo sapiens (Human), UniProt O60885); assay: BRD4-2 Ligand KI assay (TR-FRET, Cy5 labeled ligand displacement); assay type: binding
Readout Name: pIC50
One number for each entry, as −log10 of the molar value.

Input Cc1noc(C)c1-c1cc(C(O)(c2ccccn2)c2ncccn2)c2nc(C3CC3)[nH]c2c1 (racemic) [Compound 1020-239] . Output pIC50: 8.22
